Ref: a melting point compilation (Tetko et al.)

Reported melting point values are given for each entry in this list.
Report the figure in °C without appending any unit label.

// solved cases for melting point follow
COCCc1ccc(O)cc1: 44
NS(=O)(=O)c1cc2c(cc1Cl)NC(Cc1ccc(F)cc1)NS2(=O)=O (configuration not stated): 239

Ask | Sample "O=C1c2ccccc2C(=O)C1(O)C1(O)C(=O)c2ccccc2C1=O" — what was its melting point?
Reply | 252

Ask | Sample CC12CC1(C)C(=O)N(c1cc(Cl)cc(Cl)c1)C2=O (configuration not stated) — what was its melting point?
Reply | 166

Ask | Sample "CSC(=O)c1cccc2nnsc12" — what was its melting point?
Reply | 133

Ask | Sample "CCCCCCCOC(=O)CC" — what was its melting point?
Reply | -50.9

Ask | Sample "CN1C(=O)NC(=O)C1(C)C" — what was its melting point?
Reply | 163

Ask | Sample "O=C1c2ccccc2-c2ccc3c4c(ccc1c24)-c1ccccc1C3=O" — what was its melting point?
Reply | 385

* * *

Please note: melting point exactly at 80 °C is not fulfilled. Only values below 80 °C get fulfilled.

Record excerpt, results attached:
CC(CCc1ccccc1)NC(C)C(O)c1cc(I)c(O)c(I)c1 (stereo not drawn): not fulfilled
N=c1oc2ccccc2cc1C(N)=S: not fulfilled
CC1(O)CNC(=O)C1 (stereo not drawn): not fulfilled
COc1cccc(O)c1: fulfilled

Please examine the following record next.
Ask | Check if melting point falls below 80 °C for "COc1ccc(/N=N/c2c(N)nn3c(C(F)(F)F)cc(C)nc23)cc1" .
Reply | not fulfilled

* * *

Please note: melting point exactly at 200 °C is Criterion not met. Only values below 200 °C get Criterion met.

Record excerpt, results attached:
Cc1ccc(C(=O)O)o1: Criterion met
CCOC(=O)CC(CC(=O)OCC)(c1cc(C)c(O)c(C)c1)c1cc(C)c(O)c(C)c1: Criterion met
O=C(c1ccccc1O)c1ccccc1O: Criterion met
CC(Cl)(Cl)C(=O)O: Criterion met
COc1cc(C=O)cc([N+](=O)[O-])c1O: Criterion met

Please examine the following record next.
Ask | Check if melting point falls below 200 °C for Nc1ccn(C2CCC(CO)O2)c(=O)n1 (configuration not stated) .
Reply | Criterion not met

* * *

Reported melting point values are given for each entry in this list.
Report the figure in °C without appending any unit label.

// solved cases for melting point follow
NCc1ccccc1Sc1ccccc1CO: 97
CC(=O)C1CCC2C3CCC4=CC(=O)CCC4(C)C3C(=O)CC12C (stereo not drawn): 172
CCCCCCCCCC(=O)OC: -18
O=Cc1ccc(-c2cccc(C(=O)O)c2)cc1: 166
CCCCCCCCC(C)CC (stereo not drawn): -58

Ask | Sample "CC(=O)c1ccc(O)c(C)c1O" — what was its melting point?
Reply | 154

Ask | Sample "CS(=O)(=O)Nc1ccc(C#N)cc1" — what was its melting point?
Reply | 194

* * *

recordedMetric: melting point

// solved cases for melting point follow
CC1C=C(CO)N=N1 (configuration not stated): 79 °C
COc1ccccc1N/N=C(\C(N)=O)c1nc2ccccc2s1: 212 °C
ON=Cc1c(Cl)cccc1Cl: 149 °C

Ask | Sample "COCc1c(C(=O)OC(C)C)ncc2[nH]c3ccc(OCc4ccccc4)cc3c12" — what was its melting point?
Reply | 150 °C

Ask | Sample "COc1ccccc1-c1ccc(/C=C2\N=C(c3ccccc3)OC2=O)o1" — what was its melting point?
Reply | 170 °C

Ask | Sample "CCOC(=O)c1cc(C)n(-c2cc(C)n(C)n2)n1" — what was its melting point?
Reply | 72 °C

Ask | Sample "NC(=O)c1cccnc1Oc1ccccc1" — what was its melting point?
Reply | 162 to 163 °C
